Test system: Pseudomonas aeruginosa
measurement-parameters: Concentration 32 ug.mL-1; ASSAY_TEST Inhibition of Bacterial Growth; detection method Absorption (OD600); MEDIA CAMHB; plate type 384well; NBS; CORNING #3640; time 18 hr
Description: Antibacterial activity against Pseudomonas aeruginosa ATCC 27853 (CO-ADD:GN_042); MIC in CAMBH media using NBS plates, by OD(600)
The whole screen tested about 23,000 compounds, of which about 30 (0.1%) showed an effect of 50% or more. This excerpt belongs to a sample that is enriched for strong results. Entries with a potency or affinity are not part of this list.
Hi there, I'd appreciate the recorded Inhibition for every entry that follows.
Quick note: unit goes after the number.

Lab note: need Inhibition for CNC(=O)c1c(Cl)c2cc(OCc3ccccc3)ccc2n1C on Pseudomonas aeruginosa, anyone have it? 34.06%

What do we get for C#CCN(C)Cc1cc2cc(OCCC3CCN(Cc4ccccc4)CC3)ccc2n1C.Cl ? 5.95%

What do we get for COc1ccc(C=C2N=C(c3ccccc3)OC2=O)cc1 ? 9.34%

What do we get for CCCC(C)NNC(=O)Cc1c[nH]c2ccccc12 (stereo unspecified) ? 22.46%

What do we get for Nc1c2c(nc3c1c1ccccc1n3Cc1ccccc1)CCCC2 ? 35.2%

What do we get for COc1cccc(C2c3c(nc4c(c3N)CCCC4)Oc3ccc4ccccc4c32)c1 (stereo unspecified) ? 38.82%
